# study-target: Avi-tagged IL-17A (IL-17A molecule with a single biotin tag per dimer) (human) (UniProt Q16552)
# experiment-summary: SPR; Avi-tagged IL-17A (6000–9000 RU) captured on a streptavidin chip; peptides flowed at 50 μl/min; 8°C; 10 mM HEPES pH 7.5, 150 mM NaCl, 0.005% P20, 3% DMSO; global fit, 1:1 binding model
test-readout: pKd
Value format note: pKd is -log10 of concentration (mol/L); just state the number.

Q: Give the reported pKd for this binder. CLDLQYDMFGALHCV [18–913]
Ans: 5.41

Where do these numbers come from? They come from paper PMC5766103.
